// provenance: paper PMC10397247

Target: T1, 4H310-AA
T1 chain: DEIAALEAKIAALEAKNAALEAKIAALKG
Assay: two-hybrid library CCmax;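 note: natural log of median RNA to DNA barcode read ratio; higher means stronger binding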
Conditions: mean of both orientations
reported property: interaction score
Provide a numeric answer; units are not to be included.

QUERY: Answer with the recorded interaction score for the binder listed here: DKIAALEAKIAALKAENAALEAKIAALEG [4H2389-AA]
RESULT: 1.8

QUERY: Answer with the recorded interaction score for the binder listed here: DKIAALKAENAALEAKIAALEAKIAALEG [4H2725-AA]
RESULT: -1.1

QUERY: Answer with the recorded interaction score for the binder listed here: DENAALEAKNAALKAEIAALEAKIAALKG [4H1478-AA]
RESULT: -0.927
